assay system: PDL1 (CD274, B7-H1) (Homo sapiens, UniProt Q9NZQ7 Q9NZQ7:19-238)
Sequence (Q9NZQ7 19-238, one chain of several): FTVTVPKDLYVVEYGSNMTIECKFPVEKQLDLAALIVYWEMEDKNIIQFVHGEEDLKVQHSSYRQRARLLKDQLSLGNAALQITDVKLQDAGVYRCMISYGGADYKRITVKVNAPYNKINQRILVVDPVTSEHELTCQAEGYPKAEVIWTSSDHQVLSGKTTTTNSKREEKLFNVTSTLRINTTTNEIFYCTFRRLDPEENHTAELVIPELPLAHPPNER
experiment summary: competition; ED50 for blocking PD-1:PDL1, ELISA
run conditions: Mfold-predicted long terminal stem and two short stem loops
measurement type: EC50 (nM)

AP32 (62-nt) (ssDNA) DNA: TCCCTACGGCGCTAACACATCAACTTGATAGACAACTGCGTCCACTGCCACCGTGCTACAAC	12
